assay: Pharmacokinetics after single intravenous drip infusion, plasma LC-MS/MS; format: in vivo, Philippine macaques; conditions: male, Philippine macaque, cynomolgus monkey, plasma, iv, 0.42 mg/kg, AST-3424-D6 single intravenous infusion, Table 15 heading 0.58 mg/kg (text: 0.42 mg/kg); plasma; individual animals 101, 102, 103; read-out: Cmax
measured.quantity: Cmax (ng/mL)
Report the figure in ng/mL without appending any unit label.

Exam item: Look at this molecule and give its reported Cmax. [2H]C([2H])([2H])N(C(=O)c1cccc(Oc2cc([C@H](C)OP(=O)(N3CC3)N3CC3)ccc2[N+](=O)[O-])c1)C([2H])([2H])[2H]
Marked response: 485

---

assay: Pharmacokinetics after single intravenous drip infusion, plasma LC-MS/MS; format: in vivo, Philippine macaques; conditions: male, Philippine macaque, cynomolgus monkey, plasma, iv, 0.42 mg/kg, AST-3424-D6 single intravenous infusion, Table 15 heading 0.58 mg/kg (text: 0.42 mg/kg); plasma; read-out: Tmax, Mean
measured.quantity: Tmax (min)
Report the figure in min without appending any unit label.

Exam item: Look at this compound and give its reported Tmax. [2H]C([2H])([2H])N(C(=O)c1cccc(Oc2cc([C@H](C)OP(=O)(N3CC3)N3CC3)ccc2[N+](=O)[O-])c1)C([2H])([2H])[2H]
Marked response: 18.6

---

assay: Solubility study of AST-3424 (shaking at 25° C., HPLC content); assay type: physicochemical; conditions: ethanol/propylene glycol (50:50, v/v), 25 °C, organic solvent or mixture, thermodynamic from solid, Ethanol/Propylene glycol (50:50, v/v), 8 h, read-out: Content (solubility test)
measured.quantity: solubility at 8 h
Write the numeric value and follow it with the unit.

Exam item: Look at this molecule and give its reported solubility at 8 h. C[C@H](OP(=O)(N1CC1)N1CC1)c1ccc([N+](=O)[O-])c(Oc2cccc(C(=O)N(C)C)c2)c1 [AST-3424]
Marked response: 301 mg/mL

---

assay: Pharmacokinetics after single intravenous drip infusion, plasma LC-MS/MS; type: in vivo, Philippine macaques; conditions: male, Philippine macaque, plasma, intravenous, 0.42 mg/kg, AST-3424-D6 intravenous drip infusion 0.42 mg/kg; 0.75 hr; individual animals 101, 102, 103; read-out: Plasma-drug concentration
measured.quantity: concentration at 0.75 hr
Write the numeric value and follow it with the unit.

Exam item: Look at this molecule and give its reported concentration at 0.75 hr. [2H]C([2H])([2H])N(C(=O)c1cccc(Oc2cc([C@H](C)OP(=O)(N3CC3)N3CC3)ccc2[N+](=O)[O-])c1)C([2H])([2H])[2H] [AST-3424-D6]
Marked response: 113 ng/mL

---

Experiment: Pharmacokinetics after single intravenous drip infusion, plasma LC-MS/MS
Format: in vivo, Philippine macaques
Conditions: male, Philippine macaque, plasma, intravenous, 0.42 mg/kg, AST-3424-D6 intravenous drip infusion 0.42 mg/kg; 1 hr; individual animals 101, 102, 103; read-out: Plasma-drug concentration
Method: AST-3424 and AST-3424-D6 (i.e. the compound of formula I) were administered to Philippine macaques by intravenous drip infusion, and blood samples were collected at different appointed times. LC-MS/MS was used to determine concentrations of the test substances in plasma of the Philippine macaques after administration, and relevant pharmacokinetic parameters were calculated. […]
measured.quantity: concentration at 1 hr (ng/mL)
Report the figure in ng/mL without appending any unit label.

Exam item: Look at this molecule and give its reported concentration at 1 hr. [2H]C([2H])([2H])N(C(=O)c1cccc(Oc2cc([C@H](C)OP(=O)(N3CC3)N3CC3)ccc2[N+](=O)[O-])c1)C([2H])([2H])[2H]
Marked response: 41

---

assay: Pharmacokinetics after single intravenous drip infusion, plasma LC-MS/MS; format: in vivo, Philippine macaques; settings: male, Philippine macaque, cynomolgus monkey, plasma, iv, 0.42 mg/kg, AST-3424-D6 single intravenous infusion, Table 15 heading 0.58 mg/kg (text: 0.42 mg/kg); plasma; read-out: MRT(0−t), Mean
measured.quantity: MRT last (min)
Report the figure in min without appending any unit label.

Exam item: Look at this compound and give its reported MRT last. [2H]C([2H])([2H])N(C(=O)c1cccc(Oc2cc([C@H](C)OP(=O)(N3CC3)N3CC3)ccc2[N+](=O)[O-])c1)C([2H])([2H])[2H]
Marked response: 8.4

---

Assay: Pharmacokinetics after single intravenous drip infusion, plasma LC-MS/MS
Assay type: in vivo, Philippine macaques
Conditions: male, Philippine macaque, plasma, intravenous, 0.58 mg/kg, AST-3424 intravenous drip infusion 0.58 mg/kg; 0.75 hr; read-out: Plasma-drug concentration, mean
Protocol: AST-3424 and AST-3424-D6 (i.e. the compound of formula I) were administered to Philippine macaques by intravenous drip infusion, and blood samples were collected at different appointed times. LC-MS/MS was used to determine concentrations of the test substances in plasma of the Philippine macaques after administration, and relevant pharmacokinetic parameters were calculated. […]
measured.quantity: concentration at 0.75 h (ng/mL)
Report the figure in ng/mL without appending any unit label.

Exam item: Look at this molecule and give its reported concentration at 0.75 h. C[C@H](OP(=O)(N1CC1)N1CC1)c1ccc([N+](=O)[O-])c(Oc2cccc(C(=O)N(C)C)c2)c1 [AST-3424]
Marked response: 143

---

assay: Pharmacokinetics after single intravenous drip infusion, plasma LC-MS/MS; assay type: in vivo, Philippine macaques; conditions: male, Philippine macaque, plasma, intravenous, 0.42 mg/kg, AST-3424-D6 intravenous drip infusion 0.42 mg/kg; 0.75 hr; read-out: Plasma-drug concentration, mean
measured.quantity: concentration at 0.75 hr (ng/mL)
Report the figure in ng/mL without appending any unit label.

Exam item: Look at this compound and give its reported concentration at 0.75 hr. [2H]C([2H])([2H])N(C(=O)c1cccc(Oc2cc([C@H](C)OP(=O)(N3CC3)N3CC3)ccc2[N+](=O)[O-])c1)C([2H])([2H])[2H]
Marked response: 109

---

Test: Solubility study of AST-3424 (shaking at 25° C., HPLC content)
Assay type: physicochemical
Conditions: phosphate buffer of pH 6.8, 25 °C, pH 6.8, aqueous buffer, thermodynamic from solid, pH 6.8 (Phosphate buffer), 8 h, read-out: Content (solubility test)
Description: An appropriate amount of AST-3424 (hereinafter called active pharmaceutical ingredients or API) was taken and placed in a suitable container containing 40 ml of the mentioned-above solutions (20 ml for organic solvents) respectively until excess oil droplets of AST-3424 existed in the solution. Samples were put in a constant temperature shaking incubator at 25° C. and shaken at a proper speed (100 rpm). […] It should be noted that the dilution ratio after test was accurately recorded. […]
measured.quantity: solubility at 8 h
Write the numeric value and follow it with the unit.

Exam item: Look at this compound and give its reported solubility at 8 h. C[C@H](OP(=O)(N1CC1)N1CC1)c1ccc([N+](=O)[O-])c(Oc2cccc(C(=O)N(C)C)c2)c1
Marked response: 23 mg/mL

---

assay: Pharmacokinetics after single intravenous drip infusion, plasma LC-MS/MS; assay type: in vivo, Philippine macaques; details: male, Philippine macaque, cynomolgus monkey, plasma, iv, 0.58 mg/kg, AST-3424 0.58 mg/kg single intravenous infusion; plasma; read-out: MRT(0−t), Mean
measured.quantity: MRT last
Write the numeric value and follow it with the unit.

Exam item: Look at this compound and give its reported MRT last. C[C@H](OP(=O)(N1CC1)N1CC1)c1ccc([N+](=O)[O-])c(Oc2cccc(C(=O)N(C)C)c2)c1
Marked response: 10.2 min

---

assay: Pharmacokinetics after single intravenous drip infusion, plasma LC-MS/MS; type: in vivo, Philippine macaques; conditions: male, Philippine macaque, cynomolgus monkey, plasma, iv, 0.58 mg/kg, AST-3424 0.58 mg/kg single intravenous infusion; plasma; read-out: Cl, Mean (converted)
measured.quantity: clearance (mL/min/kg)
Report the figure in mL/min/kg without appending any unit label.

Exam item: Look at this compound and give its reported clearance. C[C@H](OP(=O)(N1CC1)N1CC1)c1ccc([N+](=O)[O-])c(Oc2cccc(C(=O)N(C)C)c2)c1 [AST-3424]
Marked response: 22.1

---

assay: Pharmacokinetics after single intravenous drip infusion, plasma LC-MS/MS; type: in vivo, Philippine macaques; conditions: male, Philippine macaque, plasma, intravenous, 0.58 mg/kg, AST-3424 intravenous drip infusion 0.58 mg/kg; 2 hr; individual animals 101, 102, 103; LLOQ 1 ng/ml; read-out: Plasma-drug concentration
measured.quantity: concentration at 2 h (ng/mL)
Report the figure in ng/mL without appending any unit label.

Exam item: Look at this compound and give its reported concentration at 2 h. C[C@H](OP(=O)(N1CC1)N1CC1)c1ccc([N+](=O)[O-])c(Oc2cccc(C(=O)N(C)C)c2)c1
Marked response: 1.29

---

test: Solubility study of AST-3424 (shaking at 25° C., HPLC content); assay type: physicochemical; conditions: purified water, 25 °C, water, thermodynamic from solid, Purified water, 24 h, read-out: Content (solubility test)
measured.quantity: solubility at 24 h (mg/mL)
Report the figure in mg/mL without appending any unit label.

Exam item: Look at this molecule and give its reported solubility at 24 h. C[C@H](OP(=O)(N1CC1)N1CC1)c1ccc([N+](=O)[O-])c(Oc2cccc(C(=O)N(C)C)c2)c1
Marked response: 18.8
